Recorded values, source patent US20230129258A1.

Measured Emax (fold induction over background), PC3 of individual entries
Target: CD137 on Jurkat reporter cells (Promega kit CS196005) (UniProt Q07011 24-255, limits assumed)
Sequence (Q07011 24-255 limits assumed): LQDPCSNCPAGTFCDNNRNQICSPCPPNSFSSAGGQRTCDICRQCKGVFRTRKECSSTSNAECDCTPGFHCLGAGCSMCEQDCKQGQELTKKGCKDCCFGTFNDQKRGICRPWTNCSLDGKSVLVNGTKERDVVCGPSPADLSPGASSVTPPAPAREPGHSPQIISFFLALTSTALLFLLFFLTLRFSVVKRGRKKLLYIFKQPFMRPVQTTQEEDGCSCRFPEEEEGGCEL
Assay: cell-based or functional assay
Starred links: 1 amine or outer side, 2 acyl side, 3 side chain; linkers in the order of their positions; H or OH if unused. Positions of bridges follow the written chain, without caps; N, C: chain ends. Non-standard residues stand in square brackets, D forms with d. Chains are numbered I, II in the order given. No end group written: not given here. *: point of attachment. TATA = O=C(CC[*:1])N1CN(C(=O)CC[*:2])CN(C(=O)CC[*:3])C1; Dip = N[C@H](C(=O)O)C(c1ccccc1)c1ccccc1; 1Nal = N[C@@H](Cc1cccc2ccccc12)C(=O)O; Hyp = O=C(O)[C@@H]1C[C@@H](O)CN1; tBuAla = CC(C)(C)C[C@H](N)C(=O)O; Nle = CCCC[C@H](N)C(=O)O; Pent4ynoyl = C#CCCC(=O)*
OBSERVABLE: Emax (fold induction over background), PC3 (fold over background)

BCY13048 (linker I:1-I:8-I:15 via TATA; linker II:1-II:8-II:15 via TATA (inferred); not fully specified (N-terminus, bridges); also: 1:2 complex: two copies of chain 2 (BCY8928) on the branched linker) peptide 1: C[Hyp]LVNPLCL[Dip]P[dD]WTC peptide 2: Ac-C[tBuAla]PE[dK](Pent4ynoyl)PYCFADPY[Nle]CA ... 48.4
BCY13273 (linker I:1-I:8-I:15 via TATA; linker II:1-II:8-II:15 via TATA (inferred); not fully specified (some residues, N-terminus); also: linker joins chain 1 to two chain 2 copies via PYA triazoles) peptide 1: C[Hyp]LVNPLCL[1Nal]PDWTC peptide 2: Ac-C[tBuAla]PE[dK](Pent4ynoyl)PYCFADPY[Nle]CA ... 51.3
BCY13049 (linker I:1-I:8-I:15, II:1-II:8-II:15 via TATA (inferred); not fully specified (N-terminus); also: linker joins chain 1 to two chain 2 copies via PYA triazoles) peptide 1: C[Hyp]LVNPLCLEP[dD]WTC[dA] peptide 2: Ac-C[tBuAla]PE[dK](Pent4ynoyl)PYCFADPY[Nle]CA ... 46
